B1: library; a variant is named by its letters at N, in order (parent)
chain: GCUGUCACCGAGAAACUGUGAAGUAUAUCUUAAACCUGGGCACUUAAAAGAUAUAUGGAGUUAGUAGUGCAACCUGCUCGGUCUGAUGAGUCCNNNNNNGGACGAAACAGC

Variants of: B1
Test: normalized RNA/DNA level without ligand (relative to sTRSVctl = 100) (log10 (% of sTRSVctl)); HEK293T; ligand: cyclic di-GMP (c-di-GMP-II aptamer); higher = less ribozyme self-cleavage, higher mRNA level
Conditions: reporter: mCherry (pCS4076), ligand present: no
// reported normalized RNA/DNA level without ligand (log10) per item
The answer should be written as a number, with no unit following it.

Worked set:
GCUGUCACCGAGAAACUGUGAAGUAUAUCUUAAACCUGGGCACUUAAAAGAUAUAUGGAGUUAGUAGUGCAACCUGCUCGGUCUGAUGAGUCCAUUAUCGGACGAAACAGC; 1.72
GCUGUCACCGAGAAACUGUGAAGUAUAUCUUAAACCUGGGCACUUAAAAGAUAUAUGGAGUUAGUAGUGCAACCUGCUCGGUCUGAUGAGUCCAGGGGGGGACGAAACAGC; 1.72
GCUGUCACCGAGAAACUGUGAAGUAUAUCUUAAACCUGGGCACUUAAAAGAUAUAUGGAGUUAGUAGUGCAACCUGCUCGGUCUGAUGAGUCCCUGGUCGGACGAAACAGC; 1.68

What normalized RNA/DNA level without ligand (log10) value was documented for this variant, "GCUGUCACCGAGAAACUGUGAAGUAUAUCUUAAACCUGGGCACUUAAAAGAUAUAUGGAGUUAGUAGUGCAACCUGCUCGGUCUGAUGAGUCCACCAUCGGACGAAACAGC" ?
1.68

What normalized RNA/DNA level without ligand (log10) value was documented for this variant, "GCUGUCACCGAGAAACUGUGAAGUAUAUCUUAAACCUGGGCACUUAAAAGAUAUAUGGAGUUAGUAGUGCAACCUGCUCGGUCUGAUGAGUCCUGUAAUGGACGAAACAGC" ?
1.68

What normalized RNA/DNA level without ligand (log10) value was documented for this variant, "GCUGUCACCGAGAAACUGUGAAGUAUAUCUUAAACCUGGGCACUUAAAAGAUAUAUGGAGUUAGUAGUGCAACCUGCUCGGUCUGAUGAGUCCGCCCUGGGACGAAACAGC" ?
1.76

What normalized RNA/DNA level without ligand (log10) value was documented for this variant, "GCUGUCACCGAGAAACUGUGAAGUAUAUCUUAAACCUGGGCACUUAAAAGAUAUAUGGAGUUAGUAGUGCAACCUGCUCGGUCUGAUGAGUCCCUCAGCGGACGAAACAGC" ?
1.76

What normalized RNA/DNA level without ligand (log10) value was documented for this variant, "GCUGUCACCGAGAAACUGUGAAGUAUAUCUUAAACCUGGGCACUUAAAAGAUAUAUGGAGUUAGUAGUGCAACCUGCUCGGUCUGAUGAGUCCUAACAGGGACGAAACAGC" ?
1.68
